Reported IC50 values follow for various compounds
# measured_on: MMP-13CD (catalytic domain of collagenase 3) (Homo sapiens, UniProt P45452)
# run_description: Thiopeptolide hydrolysis assay, MMP-13
# details: MMP13 IC50 (μM), Table 1b
Where a name gives a salt, the structure may show the parent alone.
Express the result in µM but write the number alone.

These solved cases illustrate the format of a correct answer.
Cc1c(=O)n(Cc2ccc(C(=O)O)cc2)c(=O)n2cc(C(=O)NCc3ccc(F)cc3)sc12 [Sodium Salt]
0.002
Cc1c(=O)n(Cc2cccc(C#N)c2)c(=O)n2cc(C(=O)NCc3ccncc3)sc12 [hydrochloride]
0.173
Cc1c(=O)n(Cc2ccc(C(=O)OCCN(C)C)cc2)c(=O)n2cc(C(=O)NCc3ccc(F)cc3)sc12
0.094
Cc1ccc(CNC(=O)c2cn3c(=O)n(Cc4ccccc4)c(=O)c(C)c3s2)cc1
0.225
Cc1c(=O)n(Cc2ccccc2)c(=O)n2cc(C(=O)NCc3ccc(Cl)c(Cl)c3)sc12
0.265

[ask] Kindly indicate its recorded IC50. Item: `Cc1c(=O)n(Cc2ccccc2)c(=O)n2cc(C(=O)NCc3ccc(F)cc3)sc12`
[reply] 0.0245

[ask] Kindly indicate its recorded IC50. Item: `Cc1c(=O)n(Cc2ccccc2)c(=O)n2cc(C(=O)NCc3ccccc3)sc12`
[reply] 0.094

[ask] Kindly indicate its recorded IC50. Item: Cc1c(=O)n(Cc2ccc(C(=O)OCCN(C)C)cc2)c(=O)n2cc(C(=O)NCc3ccncc3)sc12 [dihydrochloride]
[reply] 0.235

---

# measured_on: MMP-13CD (catalytic domain of collagenase 3) (Homo sapiens)
# run_description: Thiopeptolide hydrolysis assay, MMP-13
# details: MMP13 IC50 (nM), Table II
Each record is given class 1 if its reported IC50 is strictly below 2000 nM. Records at or above 2000 nM are given class 0.

O=C(NCc1cccc(F)c1)c1cccc(C(=O)NCc2cccc(F)c2)c1
class 0

[ask] Item `O=C(O)CN(Cc1ccccc1)C(=O)c1cccc(C(=O)NCc2ccc3c(c2)OCO3)c1` : IC50 beneath 2000 nM, strictly?
[reply] class 1

[ask] Item `COc1ccc(C(=O)NCc2ccc3c(c2)OCO3)cc1C(=O)NCc1ccc2c(c1)OCO2` : IC50 beneath 2000 nM, strictly?
[reply] class 1

[ask] Item `COc1ccc(CNC(=O)c2cccc(C(=O)NCc3ccccc3)c2)cc1` : IC50 beneath 2000 nM, strictly?
[reply] class 0

[ask] Item `O=C(NCc1ccccc1)c1cccc(C(=O)NCc2ccc3c(c2)OCO3)c1` : IC50 beneath 2000 nM, strictly?
[reply] class 1

---

# measured_on: MMP-13CD (catalytic domain of collagenase 3) (Homo sapiens, UniProt P45452)
# run_description: Thiopeptolide hydrolysis assay, MMP-13;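 note: inhibition of enzymatic thiopeptolide substrate cleavage (100 µM) in pH 6.0 MES buffer with CaCl2 and DTNB, comparing hydrolysis with versus without inhibitor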
# details: MMP13 IC50 μM, Table IVb
Each record is given Yes if its reported IC50 is strictly below 0.006 µM. Records at or above 0.006 µM are given No.

Some entries whose results are on file:
COC(=O)c1ccc(Cn2c(=O)c3cc(C(=O)NCc4ccc(OC)cc4)ccc3n(C)c2=O)cc1O
Yes
COC(=O)c1ccc(Cn2c(=O)c3cc(C(=O)NCc4ccc(OC)cc4)ccc3n(C)c2=O)cc1OC
No
COc1ccc(CNC(=O)c2ccc3c(c2)c(=O)n(CCCc2ccccc2)c(=O)n3C)cc1
No

[ask] Item `COC(=O)c1ccc(Cn2c(=O)c3cc(C(=O)NCc4ccc(OC)cc4)ccc3n(C)c2=O)cc1Cl` : IC50 beneath 0.006 µM, strictly?
[reply] No

[ask] Item `COc1ccc(CNC(=O)c2ccc3c(c2)c(=O)n(Cc2ccc(-c4ccccc4-c4nnn[nH]4)cc2)c(=O)n3C)cc1` : IC50 beneath 0.006 µM, strictly?
[reply] No

[ask] Item `COc1ccc(CNC(=O)c2cc3c(=O)n(Cc4ccc(C#N)cc4)c(=O)n(C)c3cn2)cc1` : IC50 beneath 0.006 µM, strictly?
[reply] Yes

[ask] Item `COc1ccc(CNC(=O)c2ccc3c(c2)c(=O)n(Cc2cccc(C(=O)O)c2)c(=O)n3C)cc1` : IC50 beneath 0.006 µM, strictly?
[reply] No

[ask] Item `COc1cc(CNC(=O)c2ccc3c(c2)c(=O)n(Cc2cccc(F)c2)c(=O)n3C)ccn1` : IC50 beneath 0.006 µM, strictly?
[reply] Yes
